Target: Calcitonin gene-related peptide type 1 receptor (Homo sapiens, UniProt O60894+Q16602)
Sequence (Q16602 whole entry, one chain of several): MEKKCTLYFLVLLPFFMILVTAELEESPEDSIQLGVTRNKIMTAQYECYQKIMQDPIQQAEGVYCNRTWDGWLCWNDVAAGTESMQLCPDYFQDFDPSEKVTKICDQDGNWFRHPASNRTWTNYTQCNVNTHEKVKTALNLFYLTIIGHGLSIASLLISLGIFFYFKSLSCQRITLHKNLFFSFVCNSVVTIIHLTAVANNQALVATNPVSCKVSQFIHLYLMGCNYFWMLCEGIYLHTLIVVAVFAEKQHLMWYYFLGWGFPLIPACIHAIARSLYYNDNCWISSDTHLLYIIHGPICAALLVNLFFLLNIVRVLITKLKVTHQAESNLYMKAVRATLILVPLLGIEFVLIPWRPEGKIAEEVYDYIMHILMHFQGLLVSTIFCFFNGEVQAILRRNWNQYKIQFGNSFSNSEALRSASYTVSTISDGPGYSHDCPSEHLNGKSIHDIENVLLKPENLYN
Experiment: Antagonist activity at human recombinant CGRP receptor expressed in HEK293 cells assessed as inhibition of CGRP-stimulated increase of intracellular cAMP level in absence of human serum albumin
Type: functional, cell-based
measure: Ki (nM)

Answered examples (3):
compound_structure_string	target	Ki (nM)
O=C(Cc1nnc(-c2cccc(Cl)c2Cl)o1)N1CCC(n2c(=O)[nH]c3ncccc32)CC1	Calcitonin gene-related peptide type 1 receptor (Homo sapiens, UniProt O60894+Q16602)	158
O=C(Cc1nnc(-c2cc(Cl)cc(Br)c2)o1)N1CCC(n2c(=O)[nH]c3ncccc32)CC1	Calcitonin gene-related peptide type 1 receptor (Homo sapiens, UniProt O60894+Q16602)	12.6
CCN1CCC(c2cc(Cl)cc(-c3nnc(CC(=O)N4CCC(n5c(=O)[nH]c6ncccc65)CC4)o3)c2)CC1	Calcitonin gene-related peptide type 1 receptor (Homo sapiens, UniProt O60894+Q16602)	3.16

(I) Cc1cc(-c2nnc(CC(=O)N3CCC(n4c(=O)[nH]c5ncccc54)CC3)o2)cc(N2CCOCC2)c1
(II) Cc1ncc(-c2cc(Cl)cc(-c3nnc(CC(=O)N4CCC(n5c(=O)[nH]c6ncccc65)CC4)o3)c2)n1C
Lookup: Looking at I and II , which one comes out lower in Ki terms? Return value: the label identifying the chosen record.
Found: II

(1) COc1cc(Cl)cc(-c2nnc(CC(=O)N3CCC(n4c(=O)[nH]c5ncccc54)CC3)o2)c1
(2) O=C(Cc1nnc(-c2cc(Cl)cc(C3CCN(CC(F)F)CC3)c2)o1)N1CCC(n2c(=O)[nH]c3ncccc32)CC1
Lookup: Lab note: check whether 1 or 2 shows the higher recorded Ki. Return value: the label identifying the chosen record.
Found: 1

(1) O=C(Cc1nnc(-c2ccc(Cl)c(Cl)c2)o1)N1CCC(n2c(=O)[nH]c3ncccc32)CC1
(2) CN1CCN(c2cc(Cl)cc(-c3nnc(CC(=O)N4CCC(n5c(=O)[nH]c6ncccc65)CC4)o3)c2)CC1
Lookup: Lab note: check whether 1 or 2 shows the higher recorded Ki. Return value: the label identifying the chosen record.
Found: 1
